# System: NCI-H460
# experimental-protocol: Antiproliferative activity against human NCI-H460 cells assessed as cell viability at 10^-5 M incubated for 48 hrs by sulforhodamine B assay relative to control
# Assay type: functional
# conditions: NCI-H460, 48 h, read-out: Activity
This section presents compounds with their documented viability at 10 µM values.
Enter your answer as a number in %; do not include the unit.

Would you please look over these solved cases?
| compound | test-result |
| --- | --- |
| COc1cc2c(c3c1OCCO3)C(=O)NC1C2CC(O)C(O)C1O (racemic) | 106 |
| CCCOc1cc2c(cc1OCC)C1CC(O)C(O)C(O)C1NC2=O (racemic) | 107 |
| CCOc1c(OC)cc2c(c1OCC)C(=O)NC1C2CC(O)C(O)C1O (racemic) | 107 |
| CCOc1cc2c(cc1OCC)C1CC(O)C(O)C(O)C1NC2=O (racemic) | 111 |
| COc1c2c(cc3c1C(=O)NC1C3CC(O)C(O)C1O)OCCO2 (racemic) | 109 |
| CCOc1cc2c(c(OC)c1OCC)C(=O)NC1C2CC(O)C(O)C1O (racemic) | 102 |

## Input Which viability at 10 µM is listed for CCOc1cc2c(c(OCC)c1OCC)C(=O)NC1C2CC(O)C(O)C1O (racemic) ?
## Output 109

## Input Which viability at 10 µM is listed for O=C1NC2C(CC(O)C(O)C2O)c2cc3c(c(O)c21)OCO3 (racemic) ?
## Output -15.1

## Input Which viability at 10 µM is listed for COc1cc2c(c(OC)c1OC)C(=O)NC1C2CC(O)C(O)C1O (racemic) ?
## Output 110

## Input Which viability at 10 µM is listed for O=C1NC2C(CC(O)C(O)C2O)c2cc3c(c(O)c21)OCCO3 (racemic) ?
## Output 1.26

----------
This section presents compounds with their documented viability at 10 µM values.
# Test system: HCT-15
# experimental-protocol: Antiproliferative activity against human HCT15 cells assessed as cell viability at 10^-5 M incubated for 48 hrs by sulforhodamine B assay relative to control
# Type: functional
# conditions: HCT-15, 48 h, read-out: Activity
Enter your answer as a number in %; do not include the unit.

| compound | test-system | readout-name | measure-unit | test-result |
| --- | --- | --- | --- | --- |
| COc1cc2c(c(OC)c1OC)C(=O)NC1C2CC(O)C(O)C1O (racemic) | HCT-15 | viability at 10 µM | % | 104 |

## Input // map CCOc1cc2c(c(OC)c1OCC)C(=O)NC1C2CC(O)C(O)C1O (racemic) to recorded viability at 10 µM (system: HCT-15)
## Output 99.5

## Input // map CCOc1c(OC)cc2c(c1OCC)C(=O)NC1C2CC(O)C(O)C1O (racemic) to recorded viability at 10 µM (system: HCT-15)
## Output 102

## Input // map CCOc1cc2c(c(O)c1OCC)C(=O)NC1C2CC(O)C(O)C1O (racemic) to recorded viability at 10 µM (system: HCT-15)
## Output 99

## Input // map CCOc1cc2c(cc1OCC)C1CC(O)C(O)C(O)C1NC2=O (racemic) to recorded viability at 10 µM (system: HCT-15)
## Output 101

Each recorded value in this set is attributed to ChEMBL document CHEMBL4346705.
